Provenance of the data: ChEMBL document CHEMBL1142995

Target: Glycine receptor subunit alpha-1 (Homo sapiens, UniProt P23415)
Sequence (P23415 whole entry): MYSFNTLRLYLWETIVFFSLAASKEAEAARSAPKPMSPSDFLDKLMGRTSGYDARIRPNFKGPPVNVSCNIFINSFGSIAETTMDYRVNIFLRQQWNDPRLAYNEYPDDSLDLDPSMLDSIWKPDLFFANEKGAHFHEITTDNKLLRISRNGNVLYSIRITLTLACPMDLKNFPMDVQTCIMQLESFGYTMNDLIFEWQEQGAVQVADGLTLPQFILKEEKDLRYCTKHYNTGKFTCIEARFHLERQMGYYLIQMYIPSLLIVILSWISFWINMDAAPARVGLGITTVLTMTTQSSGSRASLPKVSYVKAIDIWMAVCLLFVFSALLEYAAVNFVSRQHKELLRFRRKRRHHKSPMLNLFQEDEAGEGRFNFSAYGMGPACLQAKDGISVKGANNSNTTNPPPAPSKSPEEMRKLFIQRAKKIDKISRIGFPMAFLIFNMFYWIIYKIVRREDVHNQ
Experiment: Activity at human alpha-1-beta-GlyR expressed in HEK293 cells by FMP assay
Format: cell-based
pIC50: −log10 of the molar value.
pIC50: recorded values
MEASURED ATTRIBUTE: pIC50

compound="CC1=C2[C@H](C[C@]34[C@H]5C[C@@H](C(C)(C)C)[C@]36[C@@H](OC(=O)[C@@H]6O)O[C@]24OC5=O)OC1=O [3,14-DIDEHYDROGINKGOLIDE A]" experimental_value=5.51
compound="CC(=O)O[C@H]1C(=O)OC2O[C@@]34C(=O)OC5C[C@@H](C(C)(C)C)C21[C@@]53C[C@@H]1OC(=O)[C@H](C)[C@@H]14 (stereo partly specified)" experimental_value="< 4.00"
compound="C[C@@H]1C(=O)O[C@H]2C[C@@]34C5C[C@@H](C(C)(C)C)C36C(=O)C(=O)OC6O[C@]4(C(=O)O5)[C@]21O (stereo partly specified)" experimental_value="< 4.00"
compound="C[C@@H]1C(=O)O[C@H]2[C@H](O)[C@]34C5OC(=O)[C@@]3(OC3OC(=O)[C@H](O)C34[C@H](C(C)(C)C)[C@@H]5OC(=O)Cc3ccccc3)[C@@]12O (stereo partly specified)" experimental_value="< 4.00"
compound="COC1C[C@@]23C4C[C@@H](C(C)(C)C)C25C(OC(=O)[C@@H]5OC)O[C@@]3(C(=O)O1)C(=O)O4 (stereo partly specified)" experimental_value="< 4.00"
compound="COCO[C@H]1C(=O)O[C@H]2O[C@@]34OC(=O)[C@@H]5C[C@@H](C(C)(C)C)[C@@]21[C@]53C[C@@H]1OC(=O)[C@@H](C)[C@@]14O [10-METHOXYMETHYLOXY-GINKGOLIDE A]" experimental_value="< 4.00"

====

Target: Glycine receptor subunit alpha-1 (Homo sapiens)
Experiment: Activity at human alpha-1GlyR expressed in HEK293 cells assessed as inhibition of 300 uM glycine-induced current by whole-cell patch clamp experiment
Type: cell-based
pIC50: −log10 of the molar value.
pIC50: recorded values
MEASURED ATTRIBUTE: pIC50

compound="C[C@@H]1C(=O)O[C@H]2C[C@@]34[C@H]5C[C@@H](C(C)(C)C)[C@]36[C@@H](OC(=O)[C@@H]6O)O[C@@]4(C(=O)O5)[C@]21O [GINKGOLIDE A]" measured_attribute=pIC50 experimental_value=5.42
compound="C[C@@H]1C(=O)O[C@H]2[C@H](O)[C@]34[C@@H]5OC(=O)[C@]3(O[C@@H]3OC(=O)[C@H](O)[C@@]34[C@H](C(C)(C)C)[C@H]5O)[C@@]12O [GINKGOLIDE C]" measured_attribute=pIC50 experimental_value=5.77
compound="C[C@@H]1C(=O)O[C@H]2C[C@@]34O[C@@H]5OC(=O)[C@H](O)[C@@]56[C@H](C(C)(C)C)[C@H](O)C(OC3=O)[C@]64[C@]21O (stereo not given in full) [GINKGOLIDE J]" measured_attribute=pIC50 experimental_value=5.19
compound="C[C@@H]1C(=O)O[C@H]2[C@H](O)[C@@]34[C@H]5C[C@@H](C(C)(C)C)[C@]36[C@@H](OC(=O)[C@@H]6O)O[C@@]4(C(=O)O5)[C@@]12O [GINKOLIDE B]" measured_attribute=pIC50 experimental_value=5.77
compound="C[C@@H]1C(=O)O[C@@H]2[C@H]1[C@@]13OC4OC(=O)[C@H](O)C45[C@H](C(C)(C)C)[C@@H](O)C(OC1=O)[C@]53[C@H]2O (stereo not given in full) [GINKGOLIDE M]" measured_attribute=pIC50 experimental_value=6.19

====

Molecular target: Glycine receptor subunit alpha-1 (Homo sapiens)
Test: Activity at human alpha-1-beta-GlyR expressed in HEK293 cells by FMP assay
Type: cell-based
IC50: recorded values
MEASURED ATTRIBUTE: IC50

compound="COC(=O)/C(C)=C1\\CC[C@@]23C4C[C@@H](C(C)(C)C)C25C(OC(=O)[C@@H]5O)O[C@]13C(=O)O4 (stereo not given in full)" measured_attribute=IC50 experimental_value="> 100 µM"
compound="COC(=O)[C@H](OC)C12C(OC)O[C@@]34C(=O)OC(C[C@H]1C(C)(C)C)[C@]23C[C@@H]1OC(=O)[C@@H](C)[C@@]14O (stereo not given in full)" measured_attribute=IC50 experimental_value="> 100 µM"
compound="CCN[C@@H]1C2OC(=O)[C@]34OC5OC(=O)[C@H](O)C5([C@@H]1C(C)(C)C)[C@@]23[C@@H](O)[C@@H]1OC(=O)[C@@H](C)[C@@]14O (stereo not given in full)" measured_attribute=IC50 experimental_value="> 100 µM"
compound="C[C@@H]1C(=O)O[C@H]2[C@H](O)[C@@]34C5OC(=O)[C@@]3(OC3OC(=O)[C@H](O)C34[C@H](C(C)(C)C)[C@H]5OS(=O)(=O)C(F)(F)F)[C@@]12O (stereo not given in full)" measured_attribute=IC50 experimental_value="> 100 µM"
compound="C[C@@H]1C(=O)O[C@@H]2[C@H]1[C@@]13OC4OC(=O)[C@H](O)C45[C@H](C(C)(C)C)[C@@H](O)C(OC1=O)[C@]53[C@H]2O (stereo not given in full) [GINKGOLIDE M]" measured_attribute=IC50 experimental_value="0.56 µM"
compound="C[C@@H]1C(=O)O[C@H]2C[C@]34C5OC(=O)[C@]3(OC(O)C4[C@H](C(C)(C)C)[C@H]5O)[C@]21O (stereo not given in full)" measured_attribute=IC50 experimental_value="> 100 µM"
compound="CC(=O)O[C@@H]1C2OC(=O)[C@]34OC5OC(=O)[C@H](O)C5([C@@H]1C(C)(C)C)[C@@]23[C@@H](O)[C@@H]1OC(=O)[C@@H](C)[C@@]14O (stereo not given in full)" measured_attribute=IC50 experimental_value="> 100 µM"
compound="C[C@@H]1CO[C@H]2C[C@@]34C5C[C@@H](C(C)(C)C)C36C(OC[C@@H]6O)O[C@]4(C(=O)O5)[C@@]12O (stereo not given in full)" measured_attribute=IC50 experimental_value="> 100 µM"
compound="C[C@@H]1C(=O)O[C@H]2[C@H](O)[C@]34C5OC(=O)[C@@]3(OC3OC(=O)[C@H](O)C34[C@H](C(C)(C)C)[C@@H]5O)[C@@]12O (stereo not given in full)" measured_attribute=IC50 experimental_value="> 100 µM"
compound="C[C@@H]1C(=O)O[C@H]2[C@H](O)[C@@]34[C@H]5C[C@@H](C(C)(C)C)[C@]36[C@@H](OC(=O)[C@@H]6O)O[C@@]4(C(=O)O5)[C@@]12O [GINKOLIDE B]" measured_attribute=IC50 experimental_value="2.1 µM"
compound="CC(C)(C)[C@@H]1CC2OC(=O)C34OC5OC(=O)[C@H](O)C51[C@@]23CC1OC(=O)[C@](C)(O)[C@@]14O (stereo not given in full)" measured_attribute=IC50 experimental_value="> 100 µM"
compound="C[C@@H]1C(=O)O[C@H]2[C@H](O)[C@]34[C@@H]5OC(=O)[C@]3(O[C@@H]3OC(=O)[C@H](O)[C@@]34[C@H](C(C)(C)C)[C@H]5O)[C@@]12O [GINKGOLIDE C]" measured_attribute=IC50 experimental_value="2.4 µM"
compound="CC1=C2C(=C[C@]34C5OC(=O)[C@@]23OC2OC(=O)[C@H](O)C24[C@H](C(C)(C)C)[C@H]5O)OC1=O (stereo not given in full)" measured_attribute=IC50 experimental_value="> 100 µM"
compound=CO[C@H]1C(=O)O[C@H]2O[C@@]34OC(=O)[C@@H]5[C@H](O)[C@@H](C(C)(C)C)[C@@]21[C@@]53[C@@H](O)[C@@H]1OC(=O)[C@@H](C)[C@@]14O measured_attribute=IC50 experimental_value="5.2 µM"
compound="C[C@@H]1C(=O)OC2[C@@H]3OCO[C@H]4C(=O)OC5OC6(C(=O)OC7C[C@@H](C(C)(C)C)C54[C@]736)[C@]21O (stereo not given in full)" measured_attribute=IC50 experimental_value="8.9 µM"
compound="C[C@@H]1C(=O)O[C@H]2[C@H](O)[C@]34C5OC(=O)[C@@]3(OC3OC(=O)[C@H](O)C34[C@H](C(C)(C)C)C5=O)[C@@]12O (stereo not given in full)" measured_attribute=IC50 experimental_value="> 100 µM"
compound="C[C@@H]1C(=O)O[C@H]2C[C@@]34O[C@@H]5OC(=O)[C@H](O)[C@@]56[C@H](C(C)(C)C)[C@H](O)C(OC3=O)[C@]64[C@]21O (stereo not given in full) [GINKGOLIDE J]" measured_attribute=IC50 experimental_value="4.2 µM"
compound="COC1C[C@]23C4C[C@@H](C(C)(C)C)C25C(OC(=O)[C@@H]5OC(C)=O)O[C@@]3(C(=O)O1)C(=O)O4 (stereo not given in full)" measured_attribute=IC50 experimental_value="> 100 µM"
compound=C[C@@H]1C(=O)O[C@H]2[C@H](O)[C@]34[C@@H]5C(=O)O[C@@]3(O[C@@H]3OC(=O)[C@H](O)[C@@]34[C@H](C(C)(C)C)[C@@H]5N=[N+]=[N-])[C@@]12O measured_attribute=IC50 experimental_value="7.4 µM"
compound="C[C@@H]1CO[C@@H]2C[C@@]34C5C[C@@H](C(C)(C)C)C36C(OC(=O)[C@@H]6O)O[C@]4(C(=O)O5)[C@@]12O (stereo not given in full)" measured_attribute=IC50 experimental_value="> 100 µM"
compound="C[C@@H]1CO[C@H]2C[C@@]34C5C[C@@H](C(C)(C)C)C36C(OC[C@@H]6O)O[C@]4(CO5)[C@@]12O (stereo not given in full)" measured_attribute=IC50 experimental_value="> 100 µM"
compound="COC(=O)C(C)[C@H]1CC[C@@]23C4C[C@@H](C(C)(C)C)C25C(OC(=O)[C@@H]5O)O[C@]13C(=O)O4 (stereo not given in full)" measured_attribute=IC50 experimental_value="> 100 µM"
compound="C[C@@H]1C(=O)O[C@H]2C[C@@]34C5C[C@@H](C(C)(C)C)C3C(=O)O[C@]4(C(=O)O5)[C@]21O (stereo not given in full)" measured_attribute=IC50 experimental_value="> 100 µM"
compound=C[C@@H]1C(=O)O[C@H]2[C@H](O)[C@]34[C@@H]5C(=O)O[C@@]3(O[C@@H]3OC(=O)[C@H](O)[C@@]34[C@H](C(C)(C)C)[C@@H]5F)[C@@]12O measured_attribute=IC50 experimental_value="3.2 µM"
compound="CN[C@@H]1C2OC(=O)[C@]34OC5OC(=O)[C@H](O)C5([C@@H]1C(C)(C)C)[C@@]23[C@@H](O)[C@@H]1OC(=O)[C@@H](C)[C@@]14O (stereo not given in full)" measured_attribute=IC50 experimental_value="> 100 µM"
